System: Trichosporon asahii
Test: Antifungal activity against Trichosporon asahii 1188 after 24 hrs by broth microdilution method
Type: functional
Details: Trichosporon asahii, 1188, 24 h
I'd be grateful if you could share measured MIC80 for these entries.

**Query** Recorded MIC80 for CCOP(=O)(OCC)Oc1ccc(Cl)cc1C(=O)Nc1ccc(Br)cc1 , please?
**Result** > 500 µM

**Query** Look at this molecule and give its reported MIC80. OC(Cn1cncn1)(Cn1cncn1)c1ccc(F)cc1F
**Result** 4 µM

**Query** For the molecule shown here, CCOP(=O)(OCC)Oc1ccc(Cl)cc1C(=O)Nc1ccc(Cl)cc1 , give the reported MIC80.
**Result** > 500 µM

**Query** Item CCOP(=O)(OCC)Oc1ccc(Cl)cc1C(=O)Nc1ccc(Cl)c(Cl)c1 has what recorded MIC80?
**Result** > 500 µM

**Query** Consider the molecule shown here: CCOP(=O)(OCC)Oc1cc(Cl)ccc1C(=O)Nc1ccc(Cl)c(Cl)c1 What is its recorded MIC80?
**Result** > 500 µM
